- assaySystem: human DLL3 endogenously expressed on SHP77 and NCI-H82 cells (human) (UniProt Q9NYJ7)
- Sequence (Q9NYJ7 27-618): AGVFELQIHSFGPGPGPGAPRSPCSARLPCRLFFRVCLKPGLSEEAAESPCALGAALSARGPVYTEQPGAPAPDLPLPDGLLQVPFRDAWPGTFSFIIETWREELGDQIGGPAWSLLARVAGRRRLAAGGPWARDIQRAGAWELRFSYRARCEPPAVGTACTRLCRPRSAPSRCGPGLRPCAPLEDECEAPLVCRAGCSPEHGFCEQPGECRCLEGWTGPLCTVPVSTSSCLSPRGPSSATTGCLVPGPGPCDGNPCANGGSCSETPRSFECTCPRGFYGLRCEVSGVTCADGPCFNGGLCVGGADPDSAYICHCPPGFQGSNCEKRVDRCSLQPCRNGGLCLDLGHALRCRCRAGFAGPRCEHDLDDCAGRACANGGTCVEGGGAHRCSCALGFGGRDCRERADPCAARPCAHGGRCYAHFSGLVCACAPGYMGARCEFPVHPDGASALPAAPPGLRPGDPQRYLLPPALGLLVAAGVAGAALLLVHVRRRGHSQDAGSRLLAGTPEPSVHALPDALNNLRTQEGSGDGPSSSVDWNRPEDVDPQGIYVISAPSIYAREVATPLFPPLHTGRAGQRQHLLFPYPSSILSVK
- experiment: FACS SHP77 cells, 0.032 nM
Please respond with reported MFI for every item in the list.
State the answer as a number, implicitly in MFI.

Given mab005 scFv-hFc (Fc fusion, not shown: small tags and cut ends; a dimerising Fc or GST) scFv (part 1 of 2): DIVLTQSPATLSVTPGDSVSLSCRASQSVSNDLHWYQQKSHESPRLLIKYASQSISGIPSRFSGSGSGTDFTLTINSVETEDFGMYFCQQSNNWPYTFGGGTKLEMK scFv (part 2 of 2): QVQLQQSGAELMKPGASVTLSCKATGYTLPGYWIEWVKQRPGHGLEWIGEILPGSSSANYNEKFKGKATFTADTSSNTAYMQLSSLTTEDSAIYYCASTYGTSLDYWGQGTTLTVSS , respond with its MFI.
172

Given mab002 scFv-hFc (Fc fusion, not shown: small tags and cut ends; a dimerising Fc or GST) scFv (part 1 of 2): QIVLTQSPAIMSASPGEKVTMTCSARSSVSYMQWYQQKSGTSPKRWIYDTSKLASGVPARFSGSGSGTSYSLTISTMEAEDAATYYCQQWSSDPPTFGGGTKLEIK scFv (part 2 of 2): QIQLVQSGPELKKPGETVKISCKASGYTFTNYGMNWLKQAPGKGLKWMGWINTYTGESTYADDFKGRFAFSLETSASTVYLQINNLKNEDMATYFCARMGDGYYDFTMDYWGQGTSVTVSS , respond with its MFI.
371

The measurements presented in this section are drawn from patent EP4786492A1.
